Test system: AP1
Conditions: under metabolic activation (S9+, 1% rat liver S9), 24 h
Measured Endpoint: GFP expression, AP1 cell line

Take a look at these entries with their results.
Molecule: C[C@]12CC[C@H](O)C[C@H]1CC[C@@H]1[C@@H]2CC[C@]2(C)[C@@H](c3ccc(=O)oc3)C[C@H]3O[C@]132
GFP expression, AP1 cell line: did not respond
//
Molecule: COc1cc([C@@H]2c3cc4c(cc3[C@H](O)[C@H]3COC(=O)[C@@H]23)OCO4)cc(OC)c1OC
GFP expression, AP1 cell line: did not respond
//
Molecule: COc1cc([C@@H]2c3cc4c(cc3[C@H](O)[C@H]3COC(=O)[C@H]23)OCO4)cc(OC)c1OC [Podophyllotoxin, reference compound]
GFP expression, AP1 cell line: did not respond
//
Molecule: C[C@]12CC[C@H](O)C[C@H]1CC[C@@H]1[C@@H]2CC[C@]2(C)[C@@H](c3ccc(=O)oc3)CC[C@]12O
GFP expression, AP1 cell line: did not respond
//
Molecule: C[C@]12CC[C@H](O)C[C@H]1CC[C@@H]1[C@@H]2[C@H](O)C(=O)[C@]2(C)[C@@H](c3ccc(=O)oc3)CC[C@]12O
GFP expression, AP1 cell line: did not respond

Shift focus to the following entry.
So for CO[C@H]1C[C@H](O[C@H]2CC[C@]3(C)[C@H]4CC[C@]5(C)[C@@H](C6=CC(=O)OC6)CC[C@]5(O)[C@@H]4CC[C@]3(O)C2)O[C@H](C)[C@H]1O[C@@H]1O[C@H](CO)[C@@H](O)[C@H](O)[C@H]1O [Periplocoside] , the logged GFP expression, AP1 cell line turned out to be did not respond

----------
Test system: P53

Record Smiles: C[C@]12CC[C@H](O)C[C@H]1CC[C@@H]1[C@@H]2[C@H](O)C[C@]2(C)[C@@H](c3ccc(=O)oc3)CC[C@]12O
GFP expression, P53 cell line: increased
//
Record Smiles: C[C@]12CC[C@H](O)C[C@H]1CC[C@@H]1[C@@H]2CC[C@]2(C)[C@@H](c3ccc(=O)oc3)C[C@H]3O[C@]132
GFP expression, P53 cell line: increased
//
Record Smiles: CC(=O)O[C@H]1[C@H]2O[C@]23[C@@H]2CC[C@@H]4C[C@@H](O)CC[C@]4(C)[C@H]2CC[C@]3(C)[C@H]1c1ccc(=O)oc1
GFP expression, P53 cell line: increased

----------
Test system: AP1, P53, Nrf2, and NF-κB
Measured Endpoint: sum of activity scores compared between metabolic activation and non-metabolic conditions

Record Smiles: O=C(C[C@@H]1NCCC[C@H]1O)Cn1cnc2ccccc2c1=O
Reported: did not show a response

Record Smiles: C[C@@]1(C(=O)O)CC[C@]2(C)CC[C@]3(C)C4=CC(=O)c5c(cc(O)c(O)c5C=O)[C@]4(C)CC[C@@]3(C)[C@@H]2C1
Reported: did not show a response

----------
Below are compounds with their Toxic (natural products exceeding Score 3, Venn diagram list Fig. 3c) as measured on AP1, P53, Nrf2, and NF-κB.

Take a look at these entries with their results.
Compound: CC(=O)O[C@H]1[C@H]2O[C@]23[C@@H]2CC[C@@H]4C[C@@H](O)CC[C@]4(C)[C@H]2CC[C@]3(C)[C@H]1c1ccc(=O)oc1 [Cinobufagin]
Reported: Common

Compound: COc1cc([C@@H]2c3cc4c(cc3[C@H](O)[C@H]3COC(=O)[C@H]23)OCO4)cc(OC)c1OC [Podophyllotoxin, reference compound]
Reported: Common

Compound: CC[C@@]1(O)C(=O)OCc2c1cc1n(c2=O)Cc2cc3cc(O)ccc3nc2-1 [10-Hydroxycamptothecin]
Reported: Common

Compound: CC(C)=CCc1c(O)cc2oc3cc(O)c(O)c(CCC(C)(C)O)c3c(=O)c2c1O [Garcinone C]
Reported: S9+ only

Compound: COc1c(O)cc2oc3cc(O)c(CC=C(C)C)c(O)c3c(=O)c2c1CC=C(C)C [alpha-Mangostin]
Reported: S9+ only

Toxic (natural products exceeding Score 3, Venn diagram list Fig. 3c) of COc1cc2c3c(c1OC)-c1ccccc1C[C@H]3NCC2 [N-nornuciferine] , assay on AP1, P53, Nrf2, and NF-κB, is Common

Toxic (natural products exceeding Score 3, Venn diagram list Fig. 3c) of C[C@]12CC[C@H](O)C[C@H]1CC[C@@H]1[C@@H]2CC[C@]2(C)[C@@H](c3ccc(=O)oc3)C[C@H]3O[C@]132 [Bufogenin] , assay on AP1, P53, Nrf2, and NF-κB, is Common

meta.source: paper PMC10881971
